# system under test: DCLK1 (human) (UniProt O15075)
# Sequence (O15075 whole entry, looked up): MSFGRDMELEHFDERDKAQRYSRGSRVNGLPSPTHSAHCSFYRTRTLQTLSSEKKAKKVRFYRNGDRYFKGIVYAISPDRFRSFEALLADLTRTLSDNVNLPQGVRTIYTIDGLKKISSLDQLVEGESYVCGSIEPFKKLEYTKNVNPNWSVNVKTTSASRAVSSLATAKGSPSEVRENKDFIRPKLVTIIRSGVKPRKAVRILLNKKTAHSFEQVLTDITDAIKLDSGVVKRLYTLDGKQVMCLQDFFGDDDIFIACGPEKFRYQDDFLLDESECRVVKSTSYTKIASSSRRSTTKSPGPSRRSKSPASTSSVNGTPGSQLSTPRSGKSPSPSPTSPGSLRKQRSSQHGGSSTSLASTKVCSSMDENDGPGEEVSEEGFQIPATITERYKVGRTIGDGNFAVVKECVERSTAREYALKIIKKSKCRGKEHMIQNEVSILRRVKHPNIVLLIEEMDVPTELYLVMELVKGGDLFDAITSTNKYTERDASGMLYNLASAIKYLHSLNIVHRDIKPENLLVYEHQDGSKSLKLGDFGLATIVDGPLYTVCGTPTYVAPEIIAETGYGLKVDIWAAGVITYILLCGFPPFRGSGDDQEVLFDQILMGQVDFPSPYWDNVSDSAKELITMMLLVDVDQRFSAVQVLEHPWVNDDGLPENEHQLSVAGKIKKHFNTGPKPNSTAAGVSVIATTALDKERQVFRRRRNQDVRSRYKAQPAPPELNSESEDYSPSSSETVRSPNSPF
# protocol: KINOMEscan competition binding
# stated conditions: compound 10.0 µM
measured parameter: kinase still bound, per cent of control

See these solved cases before continuing.
compound structure: COc1cc(N2CCN(C)CC2)ccc1Nc1ncc2c(n1)N(C)c1ccccc1C(=O)N2C
experimental value: 0.65%
--
compound structure: COc1cc(N2CCN(CCO)CC2)ccc1Nc1ncc2c(n1)N(C1CCCC1)CCC(=O)N2C
experimental value: 4.2%
--
compound structure: COc1cc(N2CCC(O)CC2)ccc1Nc1ncc2c(n1)N1CCc3cccc(c31)C(=O)N2C
experimental value: 4.5%
--
compound structure: COc1cc(N2CCC(O)CC2)ccc1Nc1ncc2c(n1)N(C)c1ccccc1C(=O)N2C
experimental value: 0.55%
--
compound structure: CN1CCN(c2ccc(C(=O)Nc3ncc4c(n3)N(C)c3ccccc3C(=O)N4C)cc2)CC1
experimental value: 24%

Could you tell me kinase still bound, per cent of control for each of these compounds? They are listed below.
1. CCOc1cc(N2CCC(O)CC2)ccc1Nc1ncc2c(n1)N(C1CCCC1)CCC(=O)N2CC
2. COc1cc(N2CCC(C)(O)CC2)ccc1Nc1ncc2c(n1)N(C1CCCC1)CCC(=O)N2C

Output:
27%
20%

# return kinase still bound, per cent of control for each item in the list
1. COc1cc(C(N)=O)ccc1Nc1ncc2c(n1)N(C1CCCC1)[C@@H]1CCC[C@@H]1C(=O)N2C
2. COc1cc(C(=O)NC2CCN(C)CC2)ccc1Nc1ncc2c(n1)N(C1CCCC1)CCC(=O)N2C

Output:
1: 29%; 2: 6.1%

====

# system under test: CSK (human) (UniProt P41240)
# Sequence (P41240 whole entry, looked up): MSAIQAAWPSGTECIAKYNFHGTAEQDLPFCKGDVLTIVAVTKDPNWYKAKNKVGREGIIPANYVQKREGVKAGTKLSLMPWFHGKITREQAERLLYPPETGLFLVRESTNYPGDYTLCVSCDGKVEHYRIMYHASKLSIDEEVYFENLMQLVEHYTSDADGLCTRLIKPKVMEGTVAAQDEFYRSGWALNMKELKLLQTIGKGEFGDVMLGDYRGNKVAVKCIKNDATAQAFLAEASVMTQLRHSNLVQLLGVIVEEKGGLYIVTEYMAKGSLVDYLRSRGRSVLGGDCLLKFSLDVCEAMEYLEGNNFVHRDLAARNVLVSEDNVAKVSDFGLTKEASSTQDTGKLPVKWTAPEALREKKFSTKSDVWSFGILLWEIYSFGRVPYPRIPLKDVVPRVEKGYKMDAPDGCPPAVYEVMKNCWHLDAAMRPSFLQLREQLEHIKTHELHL
# protocol: KINOMEscan competition binding
# stated conditions: compound 10.0 µM
measured parameter: kinase still bound, per cent of control (%)
Numbers only, in %.

Worked set:
compound structure: Cc1cn(-c2cc(NC(=O)c3cccc4cc(-c5ccc(/C=C6\SC(=N)NC6=O)o5)ccc34)cc(C(F)(F)F)c2)cn1
kinase still bound, per cent of control, %: 30
//
compound structure: CN(C)C1=NC(=O)/C(=C/c2ccc(-c3ccc(S(N)(=O)=O)cc3)o2)S1
kinase still bound, per cent of control, %: 31
//
compound structure: N=C1NC(=O)/C(=C/c2ccc(-c3cncc4ccccc34)o2)S1
kinase still bound, per cent of control, %: 12
//
compound structure: O=C1NC(=O)/C(=C/c2c[nH]c(=O)c(-c3ccc(N4CCNCC4)nc3)c2)S1
kinase still bound, per cent of control, %: 80
//
compound structure: CN1CCN(c2ccc(C(=O)Nc3ncc4c(n3)N(C)c3ccccc3C(=O)N4C)cc2)CC1
kinase still bound, per cent of control, %: 100
//
compound structure: COc1cc(N2CCC(O)CC2)ccc1Nc1ncc2c(n1)N1CCc3cccc(c31)C(=O)N2C
kinase still bound, per cent of control, %: 90
//
compound structure: CN1C(=O)c2ccccc2N(C)c2nc(NS(=O)(=O)c3ccc(N)cc3)ncc21
kinase still bound, per cent of control, %: 100
//
compound structure: O=C1NC(=S)S/C1=C\c1ccc(-c2cncc3ccccc23)o1
kinase still bound, per cent of control, %: 33

Field: next molecule
Task: Param item = COc1cc(N2CCN(C)CC2)ccc1Nc1ncc2c(n1)Nc1ccccc1NC2=O ; retrieve measured kinase still bound, per cent of control.
Output: 100

Cited source for all entries: the kinase profiling compilation of Christmann-Franck et al. (2016)
